ASSAY_SYSTEM: T1, EsCas13d, nuclease-dead (Eubacterium siraeum, UniProt B0MS50, R295A;H300A;R849A;H854A)
T1 sequence: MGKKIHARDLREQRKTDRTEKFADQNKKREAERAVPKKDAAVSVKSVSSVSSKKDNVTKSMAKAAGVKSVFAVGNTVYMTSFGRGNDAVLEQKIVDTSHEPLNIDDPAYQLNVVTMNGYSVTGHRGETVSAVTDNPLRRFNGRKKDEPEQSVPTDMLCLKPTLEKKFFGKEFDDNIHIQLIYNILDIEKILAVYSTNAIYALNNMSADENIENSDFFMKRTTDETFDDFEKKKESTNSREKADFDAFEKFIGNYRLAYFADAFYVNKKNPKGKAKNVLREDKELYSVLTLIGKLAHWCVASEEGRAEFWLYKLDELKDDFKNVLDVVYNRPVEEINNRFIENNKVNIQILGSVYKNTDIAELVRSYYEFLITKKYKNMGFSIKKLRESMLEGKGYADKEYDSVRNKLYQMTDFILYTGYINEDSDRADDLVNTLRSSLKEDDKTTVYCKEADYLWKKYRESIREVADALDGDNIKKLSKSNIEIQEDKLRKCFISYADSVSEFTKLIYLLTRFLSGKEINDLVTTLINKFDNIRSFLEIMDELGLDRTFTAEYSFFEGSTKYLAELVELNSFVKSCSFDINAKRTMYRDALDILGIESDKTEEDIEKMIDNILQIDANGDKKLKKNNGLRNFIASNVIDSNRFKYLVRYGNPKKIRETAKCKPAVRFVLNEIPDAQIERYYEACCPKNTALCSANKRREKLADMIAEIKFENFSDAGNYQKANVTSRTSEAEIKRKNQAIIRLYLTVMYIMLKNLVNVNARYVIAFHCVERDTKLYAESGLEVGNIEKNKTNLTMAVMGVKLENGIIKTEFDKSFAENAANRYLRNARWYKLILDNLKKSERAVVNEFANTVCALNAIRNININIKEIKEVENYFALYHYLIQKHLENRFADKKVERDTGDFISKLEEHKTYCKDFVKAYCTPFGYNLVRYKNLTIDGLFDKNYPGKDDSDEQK
EXPERIMENT_DESCRIPTION: crRNA (strand 1, pre-loaded); Mg2+; 40 mM Tris-HCl pH 7.5, 150 mM NaCl, 6 mM MgCl2, 1 mM DTT, 0.1% Tween-20, 0.2 mg/ml BSA; 25 C; 10 min per concentration, then washed
APPLIED_CONDITIONS: tags: His6-TwinStrep-SUMO cleaved; N-terminal SNAP kept (SNAP-Surface 488); label: 3' end held by stalled T7 RNA polymerase
Listed next: entries and their corresponding Kd.
API: value field is a number in nM; no unit string.

Worked set:
>  <BINDER>
target 2 MT 5'PFS CUU 3'PFS UCU (mixed) RNA 1: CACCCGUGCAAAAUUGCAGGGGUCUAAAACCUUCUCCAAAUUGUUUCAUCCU RNA 2: GGGAAUGGAUCCACAUCUACGAAUUCCUUAGGAUGAAACAAUUUGGAGAAGUCUAGAUCGGAAGAGCACACGU

>  <MEASURED_NUMBER>
8.1

$$$$
>  <BINDER>
target 1 insU 3' of 21,insC 3' of 15 (mixed) RNA 1: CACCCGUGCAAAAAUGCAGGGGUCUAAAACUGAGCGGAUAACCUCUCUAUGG RNA 2: GGGAAUGGAUCCACAUCUACGAAUUCGUACCUAUAGAGCAGGUUAUCCGCUCACCGAGAUCGGAAGAGCACACGU

>  <MEASURED_NUMBER>
55

$$$$
>  <BINDER>
target 3 insC 3' of 13,insA 3' of 2 (mixed) RNA 1: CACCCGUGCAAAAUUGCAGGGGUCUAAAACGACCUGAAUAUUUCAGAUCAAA RNA 2: GGGAAUGGAUCCACAUCUACGAAUUCGUUUUUGAUCUGACAAUAUUCAGGUACUGCAGAUCGGAAGAGCACACGU

>  <MEASURED_NUMBER>
70

$$$$

Any idea what Kd was measured for target 2 MT 5'PFS ACA 3'PFS ACU (mixed) RNA 1: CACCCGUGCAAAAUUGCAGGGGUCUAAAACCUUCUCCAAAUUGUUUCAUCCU RNA 2: GGGAAUGGAUCCACAUCUACGAAUUCACAAGGAUGAAACAAUUUGGAGAAGACUAGAUCGGAAGAGCACACGU ?
6.3

Any idea what Kd was measured for target 2 MT 5'PFS GCG 3'PFS AGG (mixed) RNA 1: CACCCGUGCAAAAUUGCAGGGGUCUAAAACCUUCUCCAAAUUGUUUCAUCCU RNA 2: GGGAAUGGAUCCACAUCUACGAAUUCGCGAGGAUGAAACAAUUUGGAGAAGAGGAGAUCGGAAGAGCACACGU ?
16.2

Any idea what Kd was measured for target 2 MT 5'PFS AUA 3'PFS CUG (mixed) RNA 1: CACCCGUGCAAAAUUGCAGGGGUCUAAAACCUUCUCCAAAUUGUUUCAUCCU RNA 2: GGGAAUGGAUCCACAUCUACGAAUUCAUAAGGAUGAAACAAUUUGGAGAAGCUGAGAUCGGAAGAGCACACGU ?
8.8

These measurements were taken from paper PMC10786891.
